Molecular target: T1, Dimeric human CD48-mFc (human)
T1 construct: the whole entry is the construct; also called hCD48-mFc
T1 chain: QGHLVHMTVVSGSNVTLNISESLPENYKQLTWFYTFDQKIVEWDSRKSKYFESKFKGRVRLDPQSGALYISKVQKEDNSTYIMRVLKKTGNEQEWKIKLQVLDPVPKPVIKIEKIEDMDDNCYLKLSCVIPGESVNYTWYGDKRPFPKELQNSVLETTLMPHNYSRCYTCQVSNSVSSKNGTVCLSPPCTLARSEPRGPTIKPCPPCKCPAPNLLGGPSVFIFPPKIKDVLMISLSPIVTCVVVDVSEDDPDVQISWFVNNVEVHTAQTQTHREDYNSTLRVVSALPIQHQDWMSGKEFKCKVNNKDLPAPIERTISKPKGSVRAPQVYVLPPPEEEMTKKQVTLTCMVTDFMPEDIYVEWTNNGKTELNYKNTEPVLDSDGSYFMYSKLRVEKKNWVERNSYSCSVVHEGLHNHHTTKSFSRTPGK
Assay: SPR (Biacore), antibody captured by anti-Fc, CD48 in solution, 37 C
Experimental: Measurements were conducted on a T100-2 BIACORE™ instrument (Biacore Life Sciences division of GE Healthcare, Piscataway, N.J.). […] The soluble CD48 was applied to the flow cell in separate injections at different concentrations, and kinetic association (kₐ) and dissociation (kd) rate constants were determined by fits to the kinetic binding data using Biacore software. […]
Mark fulfilled only when T½ stays strictly below 200 min. Values equal to the cut-off are not fulfilled.

Binder	Answer label
H4H1763N (antibody, V domains shown, Human IgG4 Fc (H4H)) VH: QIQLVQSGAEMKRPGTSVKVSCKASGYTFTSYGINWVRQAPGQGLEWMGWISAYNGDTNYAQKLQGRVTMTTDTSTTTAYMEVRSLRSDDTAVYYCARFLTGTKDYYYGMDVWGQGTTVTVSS VL: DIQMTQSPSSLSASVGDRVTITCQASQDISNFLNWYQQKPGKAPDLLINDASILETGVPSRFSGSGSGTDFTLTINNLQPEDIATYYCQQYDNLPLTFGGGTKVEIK	fulfilled

Q. Problem: For the binder H4H1774P (antibody, human IgG4, V domains shown, Human IgG4 Fc (H4H)) VH: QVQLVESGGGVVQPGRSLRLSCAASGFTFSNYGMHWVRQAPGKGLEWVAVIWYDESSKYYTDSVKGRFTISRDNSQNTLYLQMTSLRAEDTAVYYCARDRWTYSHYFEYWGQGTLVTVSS VL: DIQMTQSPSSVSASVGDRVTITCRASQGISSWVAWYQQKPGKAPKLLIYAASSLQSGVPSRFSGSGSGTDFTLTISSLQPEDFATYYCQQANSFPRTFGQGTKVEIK , is T½ under 200 min?
A. not fulfilled

Q. In the record for H4H1781P (antibody, human IgG4, V domains shown, Human IgG4 Fc (H4H)) VH: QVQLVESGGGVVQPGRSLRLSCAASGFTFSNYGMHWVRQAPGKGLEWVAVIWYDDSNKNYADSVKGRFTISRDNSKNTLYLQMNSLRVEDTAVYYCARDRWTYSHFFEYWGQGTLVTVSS VL: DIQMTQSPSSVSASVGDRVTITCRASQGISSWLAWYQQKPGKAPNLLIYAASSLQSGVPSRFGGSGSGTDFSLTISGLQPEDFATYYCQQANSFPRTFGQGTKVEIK , is T½ less than 200 min?
A. not fulfilled

Q. Is T½ of H2M1709N (antibody, mouse IgG2, V domains shown, Human variable domains, mouse IgG2 Fc (H2M)) VH: QVQLVQSGAEVKKPGASVKVSCKVSGYTLTELSIHWVRQAPGKGLEWMGGFDPEDGETIYAQKFQGRVNMTEDTSTDTAYMELSSLRSDDTTVYFCASLLPYFDYWGQGTLVTVSS VL: EIVLTQSPGTLSLSPGERATLSCRASQSVSSSYLAWYQQKPGQAPRLLIYGASSRATGIPDRFSGSGSGTDFTLSISRLEPEDFAVYFCQQYGSSMYTFGQGTKLEIK strictly below 200 min?
A. fulfilled

Q. Say whether its T½ is strictly beneath 200 min. Entry: H3M1766N (antibody, V domains shown, Human variable domains, mouse Fc (H3M); also called H2M1766N) VH: EVQLVESGGGLAQPGGSLRLSCAASGFTFSSYEMNWVRQAPGKGLEWVSYITTSGSTIYYADSVKGRFTMSRDNAKKSLYLEMNSLRAEDTAVYYCAREECTNGVCYKDYQYYGMDVWGQGTTVTVSS VL: DIQMTQSPSSVSASVGDRVTITCRASQNINTWLAWYQQKPGKVPKLLIYAASSLQSGVPSRFSGSGSGTDFTLTISSLQPEDFATYYCQQANSFPLTFGGGTKVEIK
A. fulfilled

Q. Here's an entry: H2M1707N (antibody, V domains shown, Human variable domains, mouse IgG2 Fc (H2M)) VH: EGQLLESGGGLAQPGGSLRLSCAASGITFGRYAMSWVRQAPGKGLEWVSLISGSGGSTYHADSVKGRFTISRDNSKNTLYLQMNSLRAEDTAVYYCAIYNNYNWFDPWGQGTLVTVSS VL: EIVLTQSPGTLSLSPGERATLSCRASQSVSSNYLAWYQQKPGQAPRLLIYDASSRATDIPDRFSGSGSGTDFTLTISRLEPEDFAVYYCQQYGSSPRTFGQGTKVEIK . Is its T½ below 200 min?
A. fulfilled

Values from patent US20130230533A1
